Tested on: Mus musculus
Experiment: Reduction in total cholesterol level in high fat diet enriched with cholesterol fed C57BL/6J mouse plasma at 10 mg/kg, po through gavage for 10 days measured after 4 hrs of final dosage relative to vehicle treated-control
Format: functional, organism-based
Active and inactive are the calls of the source. The calls are words filed in the database; no cut-off is given here.
Labels: TRUE (active), FALSE (inactive)

* CC(C)n1nc(C(=O)O)cc1[C@H]1C[C@](O)(c2ccc(OCc3c(-c4c(Cl)cccc4Cl)noc3C3CC3)cc2Cl)C1 | TRUE
* O=C(O)c1cccc([C@@H]2C[C@H]2c2ccc(OCc3c(-c4c(Cl)cccc4Cl)noc3C3CC3)cc2Cl)c1 | FALSE
* O=C(O)c1ccc(C2CC2c2ccc(OCc3c(-c4c(Cl)cccc4Cl)noc3C3CC3)cc2Cl)cc1 (racemic) | TRUE
* CC(C)n1nc(C(=O)O)cc1C1CC1c1ccc(OCc2c(-c3c(Cl)cccc3Cl)noc2C2CC2)cc1Cl (racemic) | TRUE
* O=C(O)c1cccc([C@H]2C[C@](O)(c3ccc(OCc4c(-c5c(Cl)cccc5Cl)noc4C4CC4)cc3Cl)C2)c1 | TRUE

###

Assay: Apparent oral volume of distribution in C57BL/6J mouse at 5 mg/kg
Format: ADME, organism-based
Settings: in vivo
The following molecules are shown together with reported Vd/F values.
Measure name: Vd/F (L/kg)

- CC(C)n1nc(C(=O)O)cc1C1CC1c1ccc(OCc2c(-c3c(Cl)cccc3Cl)noc2C2CC2)cc1Cl (racemic): 5.5
- CC(C)n1nc(C(=O)O)cc1[C@H]1C[C@](O)(c2ccc(OCc3c(-c4c(Cl)cccc4Cl)noc3C3CC3)cc2Cl)C1: 0.8
- O=C(O)c1cccc(C2CC2c2ccc(OCc3c(-c4c(Cl)cccc4Cl)noc3C3CC3)cc2Cl)c1 (racemic): 4.7
- O=C(O)c1cccc([C@H]2C[C@](O)(c3ccc(OCc4c(-c5c(Cl)cccc5Cl)noc4C4CC4)cc3Cl)C2)c1: 0.3
- O=C(O)c1ccc([C@H]2C[C@](O)(c3ccc(OCc4c(-c5c(Cl)cccc5Cl)noc4C4CC4)cc3Cl)C2)cc1: 3.9
- O=C(O)c1ccc(C2CC2c2ccc(OCc3c(-c4c(Cl)cccc4Cl)noc3C3CC3)cc2Cl)cc1 (racemic): 3.6

###

Assay: Cmax in C57BL/6J mouse at 5 mg/kg, po and 1 mg/kg, iv
Assay type: ADME, organism-based
Details: in vivo
Measure name: log10 of Cmax (log10 of the value in ng/mL)

- O=C(O)c1ccc([C@H]2C[C@](O)(c3ccc(OCc4c(-c5c(Cl)cccc5Cl)noc4C4CC4)cc3Cl)C2)cc1: 1.98
- CC(C)n1nc(C(=O)O)cc1[C@H]1C[C@](O)(c2ccc(OCc3c(-c4c(Cl)cccc4Cl)noc3C3CC3)cc2Cl)C1: 3.17
- O=C(O)c1ccc(C2CC2c2ccc(OCc3c(-c4c(Cl)cccc4Cl)noc3C3CC3)cc2Cl)cc1 (racemic): 2.45
- CC(C)n1nc(C(=O)O)cc1C1CC1c1ccc(OCc2c(-c3c(Cl)cccc3Cl)noc2C2CC2)cc1Cl (racemic): 2.20
- O=C(O)c1cccc([C@H]2C[C@](O)(c3ccc(OCc4c(-c5c(Cl)cccc5Cl)noc4C4CC4)cc3Cl)C2)c1: 3.99
- O=C(O)c1cccc(C2CC2c2ccc(OCc3c(-c4c(Cl)cccc4Cl)noc3C3CC3)cc2Cl)c1 (racemic): 3.03
